Recorded values, source patent US20160311917A1.

Biological target: T1, recombinant human biotinylated mesothelin extracellular domain with C-terminal Avi-Tag (human, site selectively biotinylated in vitro with BirA enzyme at the C-terminal Avi-Tag)
T1 construct: Produced in HEK293F cells; as printed it includes a His tag and the Avi-Tag; Immobilised on a streptavidin sensor chip for SPR; also called human MSLN ECD; human mesothelin ECD
T1 chain: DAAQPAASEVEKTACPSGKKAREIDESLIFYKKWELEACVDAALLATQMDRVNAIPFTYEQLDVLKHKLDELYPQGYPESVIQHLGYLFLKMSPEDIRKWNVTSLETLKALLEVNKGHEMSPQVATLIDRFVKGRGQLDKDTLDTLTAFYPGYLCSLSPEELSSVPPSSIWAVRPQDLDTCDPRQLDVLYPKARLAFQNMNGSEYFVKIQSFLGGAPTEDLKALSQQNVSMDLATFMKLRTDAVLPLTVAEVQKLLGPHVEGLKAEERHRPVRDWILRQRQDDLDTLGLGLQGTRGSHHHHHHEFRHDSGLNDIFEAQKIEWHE
Experiment: SPR, Biacore T200; biotinylated mesothelin ECD on streptavidin chip, scFv injected; steady state affinity model
Recorded Metric: Kd (nM)
Write the value in nM as a bare number.

Completed entries (count: 3):
Just so you know, measured Kd for M21 scFv (human anti-mesothelin scFv, soluble, His-tagged) (scFv, also called MM21; ZS95-03QD) scFv: QVQLVQSWAEVKKPGASVKVSCKASGYTFTSYYMHWVRQAPGQGLEWMGIINPSGGSTSYAQKFQGRVTMTRDTSTSTVYMELSNLRSEDTAVYYCARSPRVTTGYFDYWGQGTLVTVSSGGGGSGGGGSGGGGSGGGGSDIQLTQSPSTLSASVGDRVTITCRASQSISSWLAWYQQKPGKAPKLLIYKASSLESGVPSRFSGSGSGTEFTLTISSLQPDDFATYYCQQYSSYPLTFGGGTRLEIKGSHHHHHHHH came out at 110

Briefly, Kd measured for M11 scFv (human anti-mesothelin scFv, soluble, His-tagged) (scFv, also called NE10-19WD) scFv: QVQLQQSGAEVKKPGASVKVSCKASGYTFTGYYMHWVRQAPGQGLEWMGWINPNSGGTNYAQNFQGRVTMTRDTSISTAYMELRRLRSDDTAVYYCASGWDFDYWGQGTLVTVSSGGGGSGGGGSGGGGSGGGGSDIRMTQSPSSLSASVGDRVTITCRASQSIRYYLSWYQQKPGKAPKLLIYTASILQNGVPSRFSGSGSGTDFTLTISSLQPEDFATYYCLQTYTTPDFGPGTKVEIKGSHHHHHHHH : 64.7

response.value for M12 scFv (human anti-mesothelin scFv, soluble, His-tagged) (scFv, also called DE12-14RD) scFv: QVQLVQSGAEVKKPGASVKVSCKASGYTFTGYYMHWVRQAPGQGLEWMGRINPNSGGTNYAQKFQGRVTMTTDTSTSTAYMELRSLRSDDTAVYYCARTTTSYAFDIWGQGTMVTVSSGGGGSGGGGSGGGGSGGGGSDIQLTQSPSTLSASVGDRVTITCRASQSISTWLAWYQQKPGKAPNLLIYKASTLESGVPSRFSGSGSGTEFTLTISSLQPDDFATYYCQQYNTYSPYTFGQGTKLEIKGSHHHHHHHH (field: Kd) = 307

Let's switch to this binder now.
The measured Kd associated with M23 scFv (human anti-mesothelin scFv, soluble, His-tagged) (scFv, also called XH66-84HE) scFv: QVQLQQSGAEVKKPGASVKVSCKASGYTFTNYYMHWVRQAPGQGLEWMGIINPSGGYTTYAQKFQGRLTMTRDTSTSTVYMELSSLRSEDTAVYYCARIRSCGGDCYYFDNWGQGTLVTVSSGGGGSGGGGSGGGGSGGGGSDIQLTQSPSTLSASVGDRVTITCRASENVNIWLAWYQQKPGKAPKLLIYKSSSLASGVPSRFSGSGSGAEFTLTISSLQPDDFATYYCQQYQSYPLTFGGGTKVDIKGSHHHHHHHH reads 114
